The values you see were collected from PubChem BioAssay AID1259421.

Assay method text: T. gondii ME49Luc in HeLa cells, luciferase assay, 72 h, no IFN-y (AID 1259421)
Applied conditions: concentration not given here
The whole screen tested about 6,400 compounds, of which about 610 (9.5%) were called active. Rule as the data show it: active = activity change below about -70%; inconclusive = no clear call, values can overlap the other calls; inactive = above that. The sample as a whole holds a higher share of actives than the screen did.
Classes used: T for active, F for inactive

>>> discrete_label("Cc1cn([C@H]2O[C@@H](CO)[C@H](O)[C@@H]2F)c(=O)[nH]c1=O")
"F"
>>> discrete_label("CNC(=O)c1ccc(C)c(-n2c(C)cc(OCc3ccc(F)cc3F)c(Br)c2=O)c1")
"F"
>>> discrete_label("CC(O)CN(CCN(CC(C)O)CC(C)O)CC(C)O (stereo not given)")
"F"
>>> discrete_label("COc1ccc(Cl)cc1C(=O)NCCc1ccc(C(=O)O)cc1")
"F"
>>> discrete_label("COC1C(O)C(CO)OC1n1cnc2c(NC3CCCCC3)ncnc21 (stereo not given)")
"F"
>>> discrete_label("N#C/C(=C/c1ccc(O)c(O)c1)C(=O)NCCCc1ccccc1")
"F"
>>> discrete_label("OC1(c2ccc(Cl)cc2)CCNCC1")
"F"
>>> discrete_label("CO[C@H]1C=CO[C@@]2(C)Oc3c(C)c(O)c4c(O)c(c5c(nc6cc(C)ccn65)c4c3C2=O)NC(=O)/C(C)=C\\C=C/[C@H](C)[C@H](O)[C@@H](C)C(O)[C@@H](C)[C@H](OC(C)=O)[C@@H]1C (stereo not given in full)")
"F"
>>> discrete_label("N=C(N)c1ccc2cc(OC(=O)c3ccc(N=C(N)N)cc3)ccc2c1")
"F"
>>> discrete_label("C[C@H]1O[C@@H](n2cc(F)c(=O)[nH]c2=O)[C@H](O)[C@@H]1O")
"T"
>>> discrete_label("N#C/C(=C\\c1ccc(O)c(O)c1)C(=O)NC1CCC(CC2CCC(NC(=O)/C(C#N)=C/c3ccc(O)c(O)c3)CC2)CC1 (stereo not given)")
"T"
>>> discrete_label("C[C@@H](Oc1ccc2[nH]nc(/C=C/c3cnn(CCO)c3)c2c1)c1c(Cl)cncc1Cl")
"T"
>>> discrete_label("C[C@H](CCC(=O)O)[C@@H]1CC[C@H]2[C@@H]3CC[C@@H]4C[C@H](O)CC[C@]4(C)[C@H]3CC[C@@]21C")
"F"
>>> discrete_label("COc1ccc2c(c1)OC1(O)COc3cc(OC)c(OC)cc3C1=C2 (stereo not given)")
"F"
>>> discrete_label("CN1C[C@H]2C[C@@H]1CN2c1cc2c(cc1F)c(=O)c(C(=O)O)cn2C1CC1")
"F"
>>> discrete_label("Cc1cc(O)cc(=O)o1")
"F"
>>> discrete_label("N#C/C(=C/c1ccc(O)c(O)c1)C(=O)NCCCCc1ccccc1")
"F"
>>> discrete_label("COc1ccc(CCN(C)CCCOc2ccc(S(=O)(=O)c3c(C(C)C)c4ccccc4n3C)cc2)cc1OC")
"T"
>>> discrete_label("COc1ccc(CCN(C)CCCN2CCc3cc(OC)c(OC)cc3CC2=O)cc1OC")
"F"
>>> discrete_label("CCN1CCN(Cc2ccc(Nc3ncc(F)c(-c4cc(F)c5nc(C)n(C(C)C)c5c4)n3)nc2)CC1")
"T"

###

Recorded activity change, negative = inhibition values for a group of molecules are listed next.
Assay method text: T. gondii ME49Luc in HeLa cells, luciferase assay, 72 h, no IFN-y (AID 1259421)
Applied conditions: hits give low values, concentration not given here
Among all 6,400 compounds or so, about 610 (9.5%) were called active. This excerpt belongs to a sample that is enriched for actives.
Readout type: activity change, negative = inhibition (%)

>>> readout_value("CCCCOc1ccc(C(=O)CCN2CCCCC2)cc1")
1.11
>>> readout_value("CN1C2CC[C@@H]1CC(OC(=O)[C@H](CO)c1ccccc1)C2 (stereo partly specified)")
5
>>> readout_value("COc1ccc(C(=O)c2ccc(O)cc2)c(O)c1O")
-0.363
>>> readout_value("CO/N=C(/C(=O)NC1C(=O)N2C(C(=O)O)=C(C[N+]3(C)CCCC3)CSC12)c1csc(N)n1 (stereo unspecified)")
6.5
>>> readout_value("Cc1cc(-c2cc(OC(=O)c3ccccc3)ccc2Cl)cc2nnc(Nc3ccc(OCCN4CCCC4)cc3)nc12")
7.81
>>> readout_value("CC(C)(S)C(=O)N[C@@H](CS)C(=O)O")
-3.42
>>> readout_value("Oc1cc2c(c(Cl)c1O)CCNC[C@@H]2c1ccccc1")
-18.1
>>> readout_value("COc1c(O)cccc1O")
9.75
>>> readout_value("CCOC(=O)[C@H](CCc1ccccc1)N[C@@H](C)C(=O)N(CC(=O)O)C1Cc2ccccc2C1")
7.2
>>> readout_value("COc1cc2c(cc1-c1c(C)noc1C)ncc1[nH]c(=O)n([C@H](C)c3ccccn3)c12")
-91.9
>>> readout_value("O=[N+]([O-])c1cncn1CCN1CCOCC1")
23.6

###

Assay method text: T. gondii ME49Luc in HeLa cells, luciferase assay, 72 h, no IFN-y (AID 1259421)
Applied conditions: concentration not given here
Screen size: about 6,400 compounds; about 610 (9.5%) were called active. Cut-off read from the data, not from the text of the source: active = activity change below about -70%; inconclusive = no clear call, values can overlap the other calls; inactive = above that. The entries come from a sample that favours actives as a whole. Where a SMILES comes first, the peptide text is derived from it. The star is where a group is joined. PhAc = O=C(Cc1ccccc1)*
Outcomes: True = active, False = inactive

>>> discrete_label("Cl/C(=C/n1cncn1)c1ccc(Cl)cc1Cl")
"False"
>>> discrete_label("CCN1/C(=C/C(C)=O)Sc2ccc(OC)cc21")
"False"
>>> discrete_label("Cn1cnc(=N)c2[nH]cnc21")
"False"
>>> discrete_label("NC1[C@H]2CN(c3nc4c(cc3F)c(=O)c(C(=O)O)cn4-c3ccc(F)cc3F)C[C@@H]12 (some centres undefined)")
"False"
>>> discrete_label("CCCN(CCC)CC1CCCCN1CCNC(=O)N1c2ccccc2C(=O)Nc2cccnc21 (centres undefined)")
"False"
>>> discrete_label("COc1cc2c(cc1OC)C(=O)CC2")
"False"
>>> discrete_label("CC(=O)NC(C(=O)O)C(C)(C)S[NH2+][O-] (centres undefined)")
"False"
>>> discrete_label("c1cc(OCCN2CCCCC2)cc(-c2n[nH]c3ccc(-c4ncn[nH]4)cc23)c1")
"False"
>>> discrete_label("c1ccc2sc(SN3CCOCC3)nc2c1")
"False"
>>> discrete_label("CC1(O)C(O)C(CO)OC1n1ccc(N)nc1=O (centres undefined)")
"False"
>>> discrete_label("CC(C)(C)CC(=O)OCC(=O)[C@@]1(O)CCC2C3CCC4=CC(=O)C=C[C@]4(C)C3[C@@H](O)C[C@@]21C (some centres undefined)")
"False"
>>> discrete_label("CC(=O)c1cnc2ccc(-c3cc(Cl)c(O)c(Cl)c3)nc2c1NC1CCC(CN(C)C)CC1 (centres undefined)")
"True"
>>> discrete_label("CO/N=C(/C(=O)NC1C(=O)N2C(C(=O)OC(C)OC(C)=O)=C(COC(N)=O)CSC12)c1ccco1 (centres undefined)")
"False"
>>> discrete_label("N#C/C(=C/c1ccc(O)c(O)c1)C(=O)OCCc1cccs1")
"False"
>>> discrete_label("CCOc1cc(/C=C(/C#N)C(N)=O)cc(CSc2ccccc2)c1O")
"False"
>>> discrete_label("CCCCCCCCCCCCCCCC[N+](C)(C)Cc1ccccc1")
"False"
>>> discrete_label("CCCCN(Cc1ccc(C(=O)NO)cc1)C(=O)Nc1ccccc1")
"True"
>>> discrete_label("CCCC[C@@H](CC)COC(=O)C(C#N)=C(c1ccccc1)c1ccccc1")
"False"
>>> discrete_label("N#C/C(=C1/SCC(c2ccccc2Cl)S1)n1ccnc1 (centres undefined)")
"False"
>>> discrete_label("OC(c1ccccc1)(c1ccccc1)C12CC[N+](CCOCc3ccccc3)(CC1)CC2")
"False"
>>> discrete_label("O=C1CC[C@@H](C(=O)O)N1")
"False"
>>> discrete_label("CCCCC/C=C\\C[C@@H](O)/C=C/C=C/C=C\\[C@@H](O)CCCC(=O)O")
"False"
>>> discrete_label("O=C(O[C@@H]1Cc2c(O)cc(O)cc2O[C@@H]1c1ccc(O)c(O)c1)c1cc(O)c(O)c(O)c1")
"False"
>>> discrete_label("COc1cccc(/C=N/N=C/c2cccc(OC)c2)c1")
"False"
>>> discrete_label("CC[C@@H](CO)Nc1nc(NCc2ccccc2)c2ncn(C(C)C)c2n1")
"False"
>>> discrete_label("CO/N=C(\\N)c1ccc(-c2ccc(-c3ccc(/C(N)=N/OC)cc3)o2)cc1")
"False"
>>> discrete_label("CCC(c1ccc(O)cc1)C(CC)c1ccc(O)cc1 (centres undefined)")
"False"
>>> discrete_label("NCC(=O)N1C[C@H](NC(=O)c2ccccc2)C[C@H]1C(=O)O")
"False"
>>> discrete_label("CCCCCCCC(=O)OCC(COC(=O)CCCCCCC)OC(=O)CCCCCCC")
"False"
>>> discrete_label("Cl/C(=C\\n1cncn1)c1ccc(Cl)cc1Cl")
"False"
>>> discrete_label("CCCNC(C)C(=O)Nc1c(C)csc1C(=O)OC (centres undefined)")
"False"
>>> discrete_label("OCc1ccc(O[C@@H]2O[C@@H](CO)[C@@H](O)[C@H](O)[C@H]2O)cc1")
"False"
>>> discrete_label("COc1cc(Nc2ncc(F)c(Nc3ccc4c(n3)N(COP(=O)(O)O)C(=O)C(C)(C)O4)n2)cc(OC)c1OC")
"True"
>>> discrete_label("C[C@@H](O)CNC(C)(C)CC(=O)N[C@@H]1CCc2ccccc2N(Cc2ccc(-c3ccccc3-c3nn[nH]n3)cc2)C1=O")
"False"
>>> discrete_label("CC(=O)N1CCN(CCOc2ccc(C3CCN(C4=Nn5c(nnc5C(F)(F)F)CC4)CC3)cc2)CC1")
"False"
>>> discrete_label("CC(C)n1cnc2c(NCc3ccccc3O)nc(NCCCO)nc21")
"False"
>>> discrete_label("C1CCC2(CC1)CCNCC2")
"False"
>>> discrete_label("CCCCCCOc1nsnc1C1=CCCN(C)C1")
"False"
>>> discrete_label("CCNC(=O)CCC(N)C(=O)O (centres undefined)")
"False"
>>> discrete_label("CC1(C)O[C@@H]2CC3C4CCC5=CC(=O)C=C[C@]5(C)C4[C@@H](O)C[C@]3(C)[C@]2(C(=O)CO)O1 (some centres undefined)")
"False"
>>> discrete_label("CN(C)CC(=O)Nc1ccc2[nH]c(=O)c3ccccc3c2c1")
"False"
>>> discrete_label("CC(C)[C@](O)(c1ccc2cc(OC(F)F)c(OC(F)F)cc2c1)c1cn[nH]n1")
"False"
>>> discrete_label("CCOC(=O)CNC(=O)[C@@H]1CCCN1C(=O)Cc1ccccc1 (PhAc-Pro-Gly-OEt)")
"False"
>>> discrete_label("O=C(O)CC(S)C(=O)O (centres undefined)")
"False"
